System tested: chemokine receptors
No end group written: not given here.
Entries and their gp120 ED-50 values follow.

[
  {
    "Binder": "HLKILNTPNCALQIV [Pep2(1-15)[SDF1]]",
    "Op": "=",
    "gp120 ED-50 [µM]": 35
  },
  {
    "Binder": "DYFETSSQCSKPGV [Pep2(1-14)[MIP1α]]",
    "Op": ">",
    "gp120 ED-50 [µM]": 100
  },
  {
    "Binder": "VAEKPCKSSTIRRYS (not fully specified (some residues)) [LRD peptide 2(1-15)[MCP-1]]",
    "Op": "=",
    "gp120 ED-50 [µM]": 3
  },
  {
    "Binder": "SYRRITSSKCPKEAV [Peptide 2(1-15)[MCP-1]]",
    "Op": "=",
    "gp120 ED-50 [µM]": 0.4
  }
]

Each recorded value in this set is attributed to patent EP2386565A2.
